Biological target: N neuronal alpha4beta2 (h) (Homo sapiens, UniProt P17787+P43681)
Construct: purchased Eurofins Cerep (SafetyScreen44), recognised from the panel format
Sequence (P43681 29-627 limits assumed): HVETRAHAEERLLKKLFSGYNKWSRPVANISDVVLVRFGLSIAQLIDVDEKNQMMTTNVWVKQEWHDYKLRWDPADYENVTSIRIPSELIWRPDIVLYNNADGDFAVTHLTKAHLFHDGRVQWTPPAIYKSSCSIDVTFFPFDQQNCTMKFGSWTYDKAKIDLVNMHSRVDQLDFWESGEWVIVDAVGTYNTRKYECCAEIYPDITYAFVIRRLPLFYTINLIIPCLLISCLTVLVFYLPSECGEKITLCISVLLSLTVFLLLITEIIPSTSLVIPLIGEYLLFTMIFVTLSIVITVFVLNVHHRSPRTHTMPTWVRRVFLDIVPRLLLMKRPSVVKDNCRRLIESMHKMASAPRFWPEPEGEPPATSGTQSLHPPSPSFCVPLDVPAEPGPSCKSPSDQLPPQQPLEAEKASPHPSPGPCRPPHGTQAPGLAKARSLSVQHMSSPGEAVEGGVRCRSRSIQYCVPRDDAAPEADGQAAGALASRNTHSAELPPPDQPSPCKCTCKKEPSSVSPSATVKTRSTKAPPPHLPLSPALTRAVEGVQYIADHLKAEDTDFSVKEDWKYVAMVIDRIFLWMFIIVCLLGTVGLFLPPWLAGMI
Sequence (P17787 26-502): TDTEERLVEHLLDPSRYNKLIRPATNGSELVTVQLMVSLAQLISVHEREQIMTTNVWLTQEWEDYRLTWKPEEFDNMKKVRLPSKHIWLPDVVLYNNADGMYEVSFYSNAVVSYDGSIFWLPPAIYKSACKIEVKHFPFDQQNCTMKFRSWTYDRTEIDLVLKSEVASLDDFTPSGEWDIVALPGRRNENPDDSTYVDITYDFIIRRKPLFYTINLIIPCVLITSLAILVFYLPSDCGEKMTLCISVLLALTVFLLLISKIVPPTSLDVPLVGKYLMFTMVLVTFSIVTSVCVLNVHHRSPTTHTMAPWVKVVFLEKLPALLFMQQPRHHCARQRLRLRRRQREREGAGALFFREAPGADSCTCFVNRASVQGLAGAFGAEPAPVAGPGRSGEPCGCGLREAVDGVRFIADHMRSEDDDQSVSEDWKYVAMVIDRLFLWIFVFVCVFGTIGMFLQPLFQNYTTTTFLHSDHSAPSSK
Assay: In vitro CEREP profiling, N neuronal alpha4beta2 (h) (agonist radioligand)
Assay type: binding
Settings: test compound concentration 10 uM
Description: Supplement media-1.zip/Safety_Panel_Profile.csv, table | column: perc_inhibition
measured endpoint: perc_inhibition (% inhibition of the binding of a ligand specific for each target) (%)

INSERT INTO assay_data (molecular_string, measured_on, recorded_result) VALUES
  ('Cn1ncc(-c2cc3c(N[C@@H](c4ccc5c(n4)OCCO5)C(C)(C)C)ncnc3[nH]2)c1C#N', 'N neuronal alpha4beta2 (h) (Homo sapiens, UniProt P17787+P43681)', -5),
  ('CC(C)[C@H](Nc1ncnc2[nH]c(-c3cnn(C)c3C#N)cc12)c1ccc2c(n1)OCCO2', 'N neuronal alpha4beta2 (h) (Homo sapiens, UniProt P17787+P43681)', 2),
  ('CC(C)[C@@H](Nc1ncnc2[nH]c(-c3cnn(C)c3C#N)cc12)c1ccc2c(n1)OCCO2', 'N neuronal alpha4beta2 (h) (Homo sapiens, UniProt P17787+P43681)', -2),
  ('COc1ccc([C@H](Cc2nnn[nH]2)NC(=O)c2ncnc3[nH]ccc23)cc1', 'N neuronal alpha4beta2 (h) (Homo sapiens, UniProt P17787+P43681)', 4);

---

Experiment: Protein binding
Type: in vitro ADME
Conditions: In vitro rat plasma protein binding
measured endpoint: perc_free (%)

INSERT INTO assay_data (molecular_string, recorded_result) VALUES
  ('Cn1ncc(-c2cc3c(N[C@@H](c4ccc5c(n4)OCCO5)C(C)(C)C)ncnc3[nH]2)c1C#N', 1.83),
  ('CNCc1cc(-c2cc3c(N[C@@H](c4ccc5c(c4)S(=O)(=O)CCC5)C(C)C)ncnc3[nH]2)co1', 7.24),
  ('CC(C)[C@@H](Nc1ncnc2[nH]c(-c3cnn(C)c3C#N)cc12)c1ccc2c(n1)OCCO2', 2.16),
  ('COc1ccc([C@H](Cc2nnn[nH]2)NC(=O)c2ncnc3[nH]ccc23)cc1', 4.69),
  ('C[C@H](C(=O)O)[C@@H](NC(=O)c1ncnc2[nH]ccc12)c1ccc(Br)cc1', 4.41),
  ('CC(C)[C@H](Nc1ncnc2[nH]ccc12)c1ccc2c(c1)S(=O)(=O)CCC2', 18.9),
  ('CC(C)[C@H](Nc1ncnc2[nH]c(-c3cnn(C)c3C#N)cc12)c1ccc2c(n1)OCCO2', 2.04);

---

The reader will find reported perc_remaining_no_cofactor values listed item by item below.
Assay: Hepatic microsomal stability, MLM
Type: in vitro ADME
Settings: In vitro mouse liver microsomal stability, no cofactor
measured endpoint: perc_remaining_no_cofactor (%)

INSERT INTO results (compound, measured_endpoint, units_label, recorded_result) VALUES
  ('CC(C)C(Nc1ncnc2[nH]ccc12)c1ccc2c(c1)NC(=O)CO2 (stereo not shown) [ASAP-0008431]', 'perc_remaining_no_cofactor', '%', 110.0),
  ('CC(C)[C@@H](Nc1ncnc2[nH]c(-c3cnn(C)c3C#N)cc12)c1ccc2c(c1)OCCO2 [ASAP-0011033]', 'perc_remaining_no_cofactor', '%', 106.0),
  ('CCNC(=O)c1cc2c(N[C@H](c3ccc4c(c3)OCCO4)C(C)C)ncnc2[nH]1 (single isomer, unassigned) [ASAP-0013827]', 'perc_remaining_no_cofactor', '%', 92.0),
  ('CNC(=O)c1cccc(-c2cc3c(N[C@H](c4ccc5c(c4)S(=O)(=O)CCC5)C(C)C)ncnc3[nH]2)c1 (single isomer, unassigned) [ASAP-0012338]', 'perc_remaining_no_cofactor', '%', 106.0),
  ('CNC(=O)c1cc2c(N[C@@H](c3ccc4c(c3)NC(=O)CO4)C(C)C)ncnc2[nH]1 [ASAP-0008571]', 'perc_remaining_no_cofactor', '%', 103.0),
  ('CC(C)[C@H](Nc1ncnc2[nH]c(-c3cnn(CC(N)=O)c3)cc12)c1ccc2c(c1)OCCO2 [ASAP-0008449]', 'perc_remaining_no_cofactor', '%', 104.0),
  ('CNC(=O)c1c[nH]c2ncnc(N[C@H](c3ccc4c(c3)S(=O)(=O)CCC4)C(C)C)c12 (racemic) [ASAP-0008641]', 'perc_remaining_no_cofactor', '%', 92.0);

---

Experiment: Hepatic microsomal stability, MLM
Assay type: in vitro ADME
Conditions: In vitro mouse liver microsomal stability
The reader will find reported log10(t_half) values listed item by item below.
measured endpoint: log10(t_half) (log10 of the value in min)

INSERT INTO measurements (molecule, recorded_result) VALUES
  ('CNC(=O)c1c[nH]c2ncnc(N[C@@H](c3ccc4c(c3)S(=O)(=O)CCC4)C(C)C)c12', 1.17),
  ('CC(C)[C@@H](Nc1ncnc2[nH]c(-c3cnn(C)c3C#N)cc12)c1ccc2c(c1)S(=O)(=O)CCC2 [ASAP-0008651]', 0.58),
  ('CC(C)[C@@H](Nc1ncnc2[nH]ccc12)c1ccc2c(c1)S(=O)(=O)CCO2', 1.38),
  ('CC(C)C(Nc1ncnc2[nH]c(C(=O)NC3CCN(C)C3)cc12)c1ccc2c(c1)S(=O)(=O)CCC2 (stereo not drawn)', 2.18),
  ('CNC(=O)c1cc2c(N[C@@H](c3ccc4c(c3)NC(=O)CO4)C(C)C)ncnc2[nH]1 [ASAP-0008571]', 1.93),
  ('CC(C)[C@@H](Nc1ncnc2[nH]c(-c3cnn(CC(N)=O)c3)cc12)c1ccc2c(c1)OCCO2', 1.61),
  ('CC(C)[C@H](Nc1ncnc2[nH]ccc12)c1ccc2c(c1)S(=O)(=O)CCC2', 0.91),
  ('CC(C)[C@@H](Nc1ncnc2[nH]c(-c3cnn(CC(N)=O)c3)cc12)c1ccc2c(n1)OCCO2 (single isomer, unassigned) [ASAP-0012315]', 2.26),
  ('CC(C)[C@H](Nc1ncnc2[nH]c(-c3cnn(C)c3C#N)cc12)c1ccc2c(n1)NC(=O)CO2 (single isomer, unassigned)', 1.11),
  ('CC(C)[C@H](Nc1ncnc2[nH]c(-c3cnn(CC(N)=O)c3)cc12)c1ccc2c(c1)NC(=O)CO2 (racemic)', 2.19),
  ('CC(C)(C)[C@H](Nc1ncnc2[nH]c(-c3cnn(CC(N)=O)c3)cc12)c1ccc2c(c1)OCCO2 (single isomer, unassigned) [ASAP-0012330]', 1.58),
  ('CNC(=O)c1c[nH]c2ncnc(N[C@H](c3ccc4c(c3)NC(=O)CO4)C(C)C)c12 (racemic)', 1.17),
  ('Cn1ncc(-c2cc3c(N[C@@H](c4ccc5c(c4)OCCO5)C(C)(C)C)ncnc3[nH]2)c1C#N (racemic)', 0.92),
  ('CCNC(=O)c1cc2c(NC(c3ccc4c(c3)S(=O)(=O)CCC4)C(C)C)ncnc2[nH]1 (stereo not drawn)', 1.49),
  ('CNC(=O)c1cccc(-c2cc3c(N[C@@H](c4ccc5c(c4)S(=O)(=O)CCC5)C(C)C)ncnc3[nH]2)c1', 0.28);

---

The reader will find reported perc_remaining values listed item by item below.
Experiment: Hepatic microsomal stability, HLM
Type: in vitro ADME, human
Details: In vitro human liver microsomal stability
measured endpoint: perc_remaining (%)

INSERT INTO measurements (molecule, recorded_result) VALUES
  ('CC(C)[C@H](CO)Nc1ncnc2[nH]ccc12', 119.0),
  ('Cc1nn(C)cc1-c1cc2c(N[C@H](c3ccc4c(c3)S(=O)(=O)CCC4)C(C)C)ncnc2[nH]1 (single isomer, unassigned)', 2.0),
  ('CNC(=O)c1c[nH]c2ncnc(N[C@H](c3ccc4c(c3)NC(=O)CO4)C(C)C)c12 (racemic)', 23.0),
  ('CC(C)[C@H](Nc1ncnc(N)c1Cl)c1ccc2c(c1)S(=O)(=O)CCC2 (racemic)', 27.0),
  ('CNC(=O)c1cc2c(N[C@@H](c3ccc4c(c3)NC(=O)CO4)C(C)C)ncnc2[nH]1 [ASAP-0008571]', 39.0),
  ('CC(C)(C)[C@@H](Nc1ncnc2[nH]c(-c3cnn(CC(N)=O)c3)cc12)c1ccc2c(n1)OCCO2', 49.0),
  ('Cc1nn(C)cc1-c1cc2c(NC(c3ccc4c(c3)S(=O)(=O)CCC4)C(C)C)ncnc2[nH]1 (stereo not shown)', 1.0);

---

Target: UniProtKB P0DTD1
Assay: biochemical
Assay type: biochemical
Conditions: SARS-CoV-2 nsp3 macrodomain TR-FRET single point; concentration 49.75 uM; n=2
measured endpoint: perc_inhibition_mean (%)

INSERT INTO results (molecular_string, recorded_result) VALUES
  ('CCn1cnc(Nc2ncnc3c2ncn3Cc2cc(OC)no2)c1', -16.725),
  ('O=C(CCN(Cc1cccc(Cl)c1)C(=O)C1(F)CCCCC1)N1CCNCC1', -3.576),
  ('CN(Cc1cn(C)nn1)C(=O)c1cnn2ccc(C3CCN(C(=O)c4ccccc4)CC3)cc12', 2.174),
  ('O=C(CCN(Cc1cccc(Cl)c1)C(=O)[C@H]1C[C@H](O)C1)N1CCNCC1', -2.133),
  ('O=C1C[C@H](CNC(=O)c2ccc(NC(=O)Nc3ccccc3)cc2)CCN1', 1.223),
  ('O=C(c1cn2ncccc2n1)N1CCC(c2ccn3ncc(C(=O)N4CCCCC4)c3c2)CC1', 30.741),
  ('O=C(N[C@H]1CCC[C@H]1C(=O)O)c1cnn2ccc(C3CCN(C(=O)c4ccccc4)CC3)cc12', 59.585);
